src = patent US9238034B2

Measured inhibition at 25 µM, listed per entry.
Biological target: Fn14-TWEAK binding (Homo sapiens, UniProt Q9NP84)
Construct: the human Fc fragment-tagged Fn14 extracellular domain (R&D Systems) was captured; purchased R&D Systems (Fn14-Fc); Peprotech (recombinant TWEAK)
Sequence (Q9NP84 28-80 limits assumed): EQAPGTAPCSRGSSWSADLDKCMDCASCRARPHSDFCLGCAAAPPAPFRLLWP
Assay: Double sandwich ELISA small molecule screening of TWEAK binding to captured Fn14-Fc
Details: Table 4, second screening iteration, 25 μM, average of duplicate; read-out: % Reduction in TWEAK Binding, Average

compound structure string: COc1cccc(NC(=O)CSc2nnc(-c3ccc(F)cc3)c(-c3ccc(F)cc3)n2)c1
measured on: Fn14-TWEAK binding (Homo sapiens, UniProt Q9NP84)
inhibition at 25 µM (%): 16.6

compound structure string: COc1cccc(NC(=O)CSc2nnc(-c3ccccc3)c(-c3ccccc3)n2)c1
measured on: Fn14-TWEAK binding (Homo sapiens, UniProt Q9NP84)
inhibition at 25 µM (%): 10.5

compound structure string: O=C(CSc1cccc2cccnc12)Nc1ccc2ccccc2c1
measured on: Fn14-TWEAK binding (Homo sapiens, UniProt Q9NP84)
inhibition at 25 µM (%): 11.1

compound structure string: O=C(CSc1nnc(-c2ccccc2)c(-c2ccccc2)n1)Nc1ccc(S(=O)(=O)Nc2nccs2)cc1
measured on: Fn14-TWEAK binding (Homo sapiens, UniProt Q9NP84)
inhibition at 25 µM (%): 11.7

compound structure string: Nc1ccccc1SCC(=O)Nc1cccc2nsnc12
measured on: Fn14-TWEAK binding (Homo sapiens, UniProt Q9NP84)
inhibition at 25 µM (%): 19.5

compound structure string: Cc1cccc(-n2c(=O)c3[nH]c4ccccc4sc=3c2=O)c1
measured on: Fn14-TWEAK binding (Homo sapiens, UniProt Q9NP84)
inhibition at 25 µM (%): 36.7

compound structure string: COc1ccc(-c2nnc(SCC(=O)Nc3cccc4ccccc34)nc2-c2ccccc2)cc1
measured on: Fn14-TWEAK binding (Homo sapiens, UniProt Q9NP84)
inhibition at 25 µM (%): 15.7

compound structure string: O=C(CSc1nnc(-c2ccccc2)c(-c2ccccc2)n1)Nc1ccccc1
measured on: Fn14-TWEAK binding (Homo sapiens, UniProt Q9NP84)
inhibition at 25 µM (%): 13

compound structure string: O=C(c1cn(-c2cccc(Cl)c2)nn1)N1CCCC1
measured on: Fn14-TWEAK binding (Homo sapiens, UniProt Q9NP84)
inhibition at 25 µM (%): 11.6

compound structure string: Cc1cc(NC(=O)CSc2ccccc2)ccc1Cl
measured on: Fn14-TWEAK binding (Homo sapiens, UniProt Q9NP84)
inhibition at 25 µM (%): 13.4

compound structure string: O=C(NC1CC1)c1cn(-c2cccc(Cl)c2)nn1
measured on: Fn14-TWEAK binding (Homo sapiens, UniProt Q9NP84)
inhibition at 25 µM (%): 15.7

compound structure string: CCn1c(=O)c(S(=O)(=O)c2ccccc2)c(O)c2ccccc21
measured on: Fn14-TWEAK binding (Homo sapiens, UniProt Q9NP84)
inhibition at 25 µM (%): 26.3

compound structure string: O=C1CN(C(=O)CSc2ccccc2)c2ccccc2N1
measured on: Fn14-TWEAK binding (Homo sapiens, UniProt Q9NP84)
inhibition at 25 µM (%): 19.7

compound structure string: CCCSc1nnc(-c2ccccc2NC(=O)CC)c(O)n1
measured on: Fn14-TWEAK binding (Homo sapiens, UniProt Q9NP84)
inhibition at 25 µM (%): 10.5

compound structure string: O=C(NCc1n[nH]c(=O)c2ccccc12)C(=O)N1CCCCCC1
measured on: Fn14-TWEAK binding (Homo sapiens, UniProt Q9NP84)
inhibition at 25 µM (%): 22

compound structure string: COc1cccc(NC(=O)CSc2nnc(-c3ccc(Cl)cc3)c(-c3ccc(Cl)cc3)n2)c1
measured on: Fn14-TWEAK binding (Homo sapiens, UniProt Q9NP84)
inhibition at 25 µM (%): 24

compound structure string: O=C(CSc1ccccc1)Nc1cccc2nsnc12
measured on: Fn14-TWEAK binding (Homo sapiens, UniProt Q9NP84)
inhibition at 25 µM (%): 14.6

compound structure string: O=C(NCc1ccccc1Cl)C(=O)NCc1n[nH]c(=O)c2ccccc12
measured on: Fn14-TWEAK binding (Homo sapiens, UniProt Q9NP84)
inhibition at 25 µM (%): 1.62

compound structure string: CCCC(=O)Nc1ccccc1-c1nnc(SC)nc1O
measured on: Fn14-TWEAK binding (Homo sapiens, UniProt Q9NP84)
inhibition at 25 µM (%): 20.2
